src = ChEMBL document CHEMBL1139838

target: Delta-type opioid receptor (Mus musculus) (UniProt P32300); conditions: Vas deferens
Sequence (P32300 whole entry): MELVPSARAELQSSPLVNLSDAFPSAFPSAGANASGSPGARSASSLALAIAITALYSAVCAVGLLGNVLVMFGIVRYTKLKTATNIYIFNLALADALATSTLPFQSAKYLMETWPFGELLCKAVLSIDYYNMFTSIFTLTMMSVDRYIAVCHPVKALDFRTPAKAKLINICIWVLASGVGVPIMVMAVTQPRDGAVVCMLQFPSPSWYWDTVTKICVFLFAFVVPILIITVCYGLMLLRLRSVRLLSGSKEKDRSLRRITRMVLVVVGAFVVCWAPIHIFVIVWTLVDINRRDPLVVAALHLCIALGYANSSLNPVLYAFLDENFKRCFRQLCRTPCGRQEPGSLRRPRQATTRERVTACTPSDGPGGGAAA
Description: Antagonism at delta opioid receptor determined against DPDPE in electrically induced mouse vas deferens
Where a SMILES comes first, the peptide text is derived from it. [ ]: non-standard residue; d: D form. Tic = O=C(O)[C@@H]1Cc2ccccc2CN1; Cha = N[C@@H](CC1CCCCC1)C(=O)O
Strictly below 0.7 nM in Ke: MET. Otherwise: NOT MET.

Known results for compounds:
| compound | answer-label |
| --- | --- |
| Cc1cc(O)cc(C)c1C[C@H](N)C(=O)N1Cc2ccccc2CC1C(=O)N[C@H](C(=O)N[C@@H](Cc1ccccc1)C(=O)O)[C@@H](C)C1CCCCC1 (some centres not stated) | MET |
| Cc1cc(O)cc(C)c1C[C@@H](N)C(=O)N1Cc2ccccc2C[C@H]1C(=O)N[C@@H](Cc1ccccc1)C(=O)N[C@@H](Cc1ccccc1)C(=O)O | MET |
| Cc1cc(O)cc(C)c1C[C@H](N)C(=O)N1Cc2ccccc2CC1C(=O)N[C@@H](C(=O)N[C@@H](Cc1ccccc1)C(N)=O)[C@@H](C)C1CCCCC1 (some centres not stated) | NOT MET |
| Cc1cc(O)cc(C)c1C[C@H](N)C(=O)N1Cc2ccccc2CC1C(=O)N[C@@H](C(=O)N[C@@H](Cc1ccccc1)C(N)=O)[C@H](C)C1CCCCC1 (some centres not stated) | NOT MET |
| Cc1cc(O)cc(C)c1C[C@H](N)C(=O)N1Cc2ccccc2CC1C(=O)N[C@H](C(=O)N[C@@H](Cc1ccccc1)C(N)=O)[C@@H](C)C1CCCCC1 (some centres not stated) | NOT MET |
| Cc1cc(O)cc(C)c1C[C@H](N)C(=O)N1Cc2ccccc2CC1C(=O)N[C@H](C(=O)N[C@@H](Cc1ccccc1)C(=O)O)[C@H](C)C1CCCCC1 (some centres not stated) | NOT MET |

Criterion: Ke strictly below 0.7 nM. Is it met by NC(=O)[C@H](Cc1ccccc1)NC(=O)[C@H](Cc1ccccc1)NC(=O)[C@@H]1Cc2ccccc2CN1C(=O)[C@H](N)Cc1ccc(O)cc1 ? NOT MET

Is Ke strictly under 0.7 nM for the entry N[C@@H](Cc1ccc(O)cc1)C(=O)N1Cc2ccccc2C[C@H]1C(=O)N[C@@H](Cc1ccccc1)C(=O)N[C@@H](Cc1ccccc1)C(=O)O (H-Y[Tic]FF-OH) ? NOT MET

Is the reported Ke for Cc1cc(O)cc(C)c1C[C@H](N)C(=O)N1Cc2ccccc2CC1C(=O)N[C@@H](C(=O)N[C@@H](Cc1ccccc1)C(=O)O)[C@@H](C)C1CCCCC1 (some centres not stated) strictly below 0.7 nM? MET

Answer whether the compound N[C@@H](Cc1ccc(O)cc1)C(=O)N1Cc2ccccc2C[C@H]1C(=O)N[C@@H](CC1CCCCC1)C(=O)N[C@@H](Cc1ccccc1)C(=O)O (H-Y[Tic][Cha]F-OH) has Ke strictly less than 0.7 nM MET

A record lists Cc1cc(O)cc(C)c1C[C@H](N)C(=O)N1Cc2ccccc2CC1C(=O)N[C@@H](C(=O)N[C@@H](Cc1ccccc1)C(=O)O)[C@H](C)C1CCCCC1 (some centres not stated) . Is its Ke below 0.7 nM? MET
